Readings of IC50 for the listed compounds
- Measurement target: unphosphorylated-BTK kinase domain (UP-BTK), GST-tagged human BTK (389-659aa) (Homo sapiens (Human))
- Method description: BTK Kinase Lanthascreen Binding Assay
- Experimental context: read-out: BTK_I_binding pIC50 (converted)
Form entry: value (nM) — number only.

Consider the worked cases shown below.
{"columns": ["Compound", "IC50, nM"],
 "data": [
  ["Cc1cc(Oc2ccccc2)ccc1N1C(=O)Nc2c(C(=O)N[C@H]3CCCC[C@@H]3O)sc3nccc1c23 (racemic)", 191],
  ["C=CC(=O)N[C@@H]1CC[C@H](NC(=O)c2sc3nccc4c3c2NC(=O)N4c2ccc(Oc3ccccc3)cc2)C1", 15.8],
  ["Cc1cc(CC(C)C)ncc1N1C(=O)Nc2c(C(=O)N[C@@H]3CCC[C@@H]3NC(=O)/C=C/CNC(=O)CCCC(=O)NCCCOCCOCCOCCCNC(=O)CCCC[C@@H]3SC[C@@H]4NC(=O)N[C@@H]43)sc3nccc1c23 (single isomer, unassigned)", 229]
]}

Now look at this one.
Q) Find the recorded IC50 belonging to N[C@H]1CC[C@@H](NC(=O)c2sc3nccc4c3c2NC(=O)N4c2ccc(Oc3ccccc3)cc2)C1 (racemic) and report it.
A) 77.6

====

- Measurement target: unphosphorylated-BTK kinase domain (UP-BTK), GST-tagged human BTK (389-659aa) (Homo sapiens (Human), UniProt Q06187)
- Sequence (Q06187 389-659): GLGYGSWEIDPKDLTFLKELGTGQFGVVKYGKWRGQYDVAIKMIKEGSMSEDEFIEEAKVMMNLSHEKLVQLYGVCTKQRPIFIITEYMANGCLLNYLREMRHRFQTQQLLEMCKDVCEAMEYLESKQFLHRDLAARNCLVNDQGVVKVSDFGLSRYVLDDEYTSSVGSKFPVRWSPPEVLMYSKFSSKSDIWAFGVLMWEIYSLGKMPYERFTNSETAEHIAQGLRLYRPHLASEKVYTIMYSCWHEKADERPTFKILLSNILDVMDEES
- Method description: BTK Kinase Lanthascreen Binding Assay
- Experimental context: read-out: BTK_I_binding pIC50 (converted)
- Experimental: BTK Kinase Lanthascreen Binding Assay: A BTK kinase lanthascreen binding assay monitors compound binding to unphosphorylated-BTK kinase domain (UP-BTK), by competing with a fluorescent labeled tracer. […] Data were analyzed using Xlfit™ version 5.3 from ID Business Solutions (Guildford), Microsoft Excel add-in. pIC50 refers to the negative log of the IC50 in molar.
Property name: IC50

Consider the worked cases shown below.
{"columns": ["Molecule", "IC50"],
 "data": [
  ["Cc1cc(Oc2ccccc2)ncc1N1C(=O)Nc2c(C(=O)N[C@@H]3CCC[C@H](N)C3)sc3nccc1c23 (single isomer, unassigned)", "> 1000 nM"],
  ["C=CC(=O)N[C@H]1CCC[C@@H](NC(=O)c2sc3nccc4c3c2NC(=O)N4c2ccc(OC(C)C)cc2C)C1 (single isomer, unassigned)", "> 1000 nM"],
  ["Cc1nc(Oc2ccccc2)ccc1N1C(=O)Nc2c(C(=O)N[C@H]3CCC[C@@H](N)C3)sc3nccc1c23 (single isomer, unassigned)", "> 1000 nM"]
]}

Q) Find the recorded IC50 belonging to `C=CC(=O)N[C@H]1CCC[C@H](NC(=O)c2sc3nccc4c3c2NC(=O)N4c2ccnc(-c3ccccc3)c2)C1` and report it.
A) > 1000 nM

Q) Find the recorded IC50 belonging to C=CC(=O)N[C@@H]1CCC[C@H](NC(=O)c2sc3nccc4c3c2NC(=O)N4c2ccc(Oc3ccccc3)nc2C)C1 (single isomer, unassigned) and report it.
A) > 1000 nM

Q) Find the recorded IC50 belonging to `Cc1cc(Oc2ccccc2)ccc1N1C(=O)Nc2c(C(=O)N[C@H]3CC[C@H](O)CC3)sc3nccc1c23` and report it.
A) 229 nM

====

- Measurement target: unphosphorylated-BTK kinase domain (UP-BTK), GST-tagged human BTK (389-659aa) (Homo sapiens (Human))
- Method description: BTK Kinase Lanthascreen Binding Assay
- Experimental context: compound, 50 nM Tracer 236, 2 nM anti-GST antibody, 60 minutes; pIC50 = negative log of the IC50 in molar
Consider the cut-off 7. If the recorded BTK_I_binding pIC50 is strictly smaller, the label is criterion met; if not, the label is criterion not met.

{"columns": ["Compound", "Assigned class"],
 "data": [
  ["C=CC(=O)N[C@H]1CCCC[C@H]1NC(=O)c1sc2nccc3c2c1NC(=O)N3c1ccc(Oc2ccccc2)nc1 [Example 172]", "criterion not met"],
  ["C=CC(=O)N[C@H]1CCCC[C@H]1NC(=O)c1sc2nccc3c2c1NC(=O)N3c1ccc(OC(C)C)cc1C (single isomer, unassigned) [Example 174]", "criterion not met"],
  ["Cc1cc(Oc2ccccc2)ccc1N1C(=O)Nc2c(C(=O)N[C@H]3CC[C@@H](NC(=O)CN)C3)sc3nccc1c23 [Example 75]", "criterion not met"]
]}

Q) Given the entry Cc1cc(Oc2ccccc2)ccc1N1C(=O)Nc2c(C(=O)N[C@H]3CCC[C@@H](N)C3)sc3nccc1c23 (single isomer, unassigned) [Example 230] , would its reported BTK_I_binding pIC50 be below 7?
A) criterion not met

Q) Given the entry Cc1cc(Oc2ccccc2)ccc1N1C(=O)Nc2c(C(=O)N[C@@H]3CCC[C@H]3NC(=O)CN(C)C)sc3nccc1c23 (single isomer, unassigned) [Example 111] , would its reported BTK_I_binding pIC50 be below 7?
A) criterion not met

Q) Given the entry CNCC(=O)N[C@@H]1CC[C@@H](NC(=O)c2sc3nccc4c3c2NC(=O)N4c2ccc(Oc3ccccc3)cc2C)C1 [Example 229] , would its reported BTK_I_binding pIC50 be below 7?
A) criterion not met

Q) Given the entry Cc1cc(Oc2ccccc2)ccc1N1C(=O)Nc2c(C(=O)N[C@H]3CC[C@@H](N(C)C)CC3)sc3nccc1c23 [Example 100] , would its reported BTK_I_binding pIC50 be below 7?
A) criterion met

Q) Given the entry Cc1cc(Oc2ccccc2)ccc1N1C(=O)Nc2c(C(=O)N[C@H]3CC[C@@H](N)CC3)sc3nccc1c23 [Example 25] , would its reported BTK_I_binding pIC50 be below 7?
A) criterion met

Q) Given the entry Cc1nc(Oc2ccccc2)ncc1N1C(=O)Nc2c(C(=O)N[C@@H]3CCC[C@@H]3N)sc3nccc1c23 (single isomer, unassigned) [Example 254] , would its reported BTK_I_binding pIC50 be below 7?
A) criterion met

Q) Given the entry C=CC(=O)N[C@H]1CCC[C@H]1NC(=O)c1sc2nccc3c2c1NC(=O)N3c1ccc(OC2CCOCC2)cc1C [Example 206] , would its reported BTK_I_binding pIC50 be below 7?
A) criterion not met

====

- Measurement target: unphosphorylated-BTK kinase domain (UP-BTK), GST-tagged human BTK (389-659aa) (Homo sapiens (Human), UniProt Q06187)
- Method description: BTK Kinase Lanthascreen Binding Assay
- Experimental context: compound, 50 nM Tracer 236, 2 nM anti-GST antibody, 60 minutes; pIC50 = negative log of the IC50 in molar
Readings of BTK_I_binding pIC50 for the listed compounds

Consider the worked cases shown below.
{"columns": ["Compound", "Value observed"],
 "data": [
  ["CCC(=O)N[C@@H]1CCC[C@H]1NC(=O)c1sc2nccc3c2c1NC(=O)N3c1ccc(Oc2ccccc2)cc1C", 6.69],
  ["C=CC(=O)N[C@H]1CCC[C@H]1NC(=O)c1sc2nccc3c2c1NC(=O)N3c1cncc(-c2ccccc2)c1", 7.92]
]}

Q) Find the recorded BTK_I_binding pIC50 belonging to CC(=O)N[C@H]1CCCC[C@H]1NC(=O)c1sc2nccc3c2c1NC(=O)N3c1ccc(Oc2ccccc2)cc1C [Example 33] and report it.
A) 6.98

Q) Find the recorded BTK_I_binding pIC50 belonging to `O=C(N[C@@H]1CCC[C@H](O)C1)c1sc2nccc3c2c1NC(=O)N3c1ccc(Oc2ccccc2)cc1` and report it.
A) 6.87

====

- Measurement target: unphosphorylated-BTK kinase domain (UP-BTK), GST-tagged human BTK (389-659aa) (Homo sapiens (Human), UniProt Q06187)
- Method description: BTK Kinase Lanthascreen Binding Assay
- Experimental context: compound, 50 nM Tracer 236, 2 nM anti-GST antibody, 60 minutes; pIC50 = negative log of the IC50 in molar
Property name: BTK_I_binding pIC50
Write the number on its own, no unit after it.

Consider the worked cases shown below.
{"columns": ["Compound", "BTK_I_binding pIC50"],
 "data": [
  ["C=CC(=O)N[C@@H]1CCCC[C@@H]1NC(=O)c1sc2nccc3c2c1NC(=O)N3c1ccc(Oc2ccccc2)cc1", 6.71],
  ["C=CC(=O)N[C@H]1CCCC[C@H]1NC(=O)c1sc2nccc3c2c1NC(=O)N3c1cnc(OCC(C)C)cc1C", 7.66],
  ["Cc1cc(Oc2ccccc2)ccc1N1C(=O)Nc2c(C(=O)N[C@H]3CC[C@@H](N(C)C)CC3)sc3nccc1c23 [Example 66]", 6.56]
]}

Q) Find the recorded BTK_I_binding pIC50 belonging to C=CC(=O)N[C@H]1CCCC[C@H]1NC(=O)c1sc2nccc3c2c1NC(=O)N3c1cnc(OC2CCC2)cc1C [Example 183] and report it.
A) 7.58

Q) Find the recorded BTK_I_binding pIC50 belonging to `Cc1cc(Oc2ccccc2)ccc1N1C(=O)Nc2c(C(=O)N[C@H]3CC[C@H](NC(=O)CN(C)C)C3)sc3nccc1c23` and report it.
A) 6.73

Q) Find the recorded BTK_I_binding pIC50 belonging to `CNC/C=C/C(=O)N[C@H]1CC[C@@H](NC(=O)c2sc3nccc4c3c2NC(=O)N4c2ccc(Oc3ccccc3)cc2C)CC1` and report it.
A) 6.55

Q) Find the recorded BTK_I_binding pIC50 belonging to `C=CC(=O)N[C@H]1CCC[C@H]1NC(=O)c1sc2nccc3c2c1NC(=O)N3c1ccnc(C(C)C)c1` and report it.
A) 7.53
